Data credit: patent US20240238281A1

- system_under_test: MC5R (Homo sapiens)
- Construct: expressed in transfected cells
- Sequence (P33032 whole entry): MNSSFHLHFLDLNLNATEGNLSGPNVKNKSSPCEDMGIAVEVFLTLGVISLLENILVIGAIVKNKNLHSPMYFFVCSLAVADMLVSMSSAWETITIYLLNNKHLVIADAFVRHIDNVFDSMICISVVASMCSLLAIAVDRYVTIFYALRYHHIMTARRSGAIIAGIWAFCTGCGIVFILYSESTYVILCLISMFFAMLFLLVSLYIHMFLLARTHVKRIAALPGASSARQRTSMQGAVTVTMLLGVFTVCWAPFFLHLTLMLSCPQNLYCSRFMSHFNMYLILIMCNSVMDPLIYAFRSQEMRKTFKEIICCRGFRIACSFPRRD
- method_description: In vitro activity of MCR receptors, intracellular cAMP signal (HEK293T/MCR cell line), MC5R
- Type: cell-based
- measurement_parameters: cAMP, HEK293T/MCR cell line; read-out: MC5R EC50
I'd appreciate it if you could supply EC50 values for the items below.
Provide only the numeric value, understood in µM.

Given C[C@@H]1CN(C(=O)[C@@H]2CN(C3CCOCC3)C[C@H]2c2ccc(F)cc2F)C[C@H](C)N1c1ccc(F)c(F)c1 [Compound 14] , respond with its EC50.
0.919

Give a short answer stating reported EC50 for C[C@@H]1CN(C(=O)[C@@H]2CN(C3CCC3)C[C@H]2c2ccc(F)cc2F)C[C@H](C)N1c1ccc(F)cc1 [Compound 17] .
8.15

* * *

- method_description: Drug concentration in brain tissues of rats, oral gavage
- Type: in vivo
- measurement_parameters: SD, brain, rat, p.o. 20 mg/kg, 0.5 hour, read-out: Brain drug concentration
property_name: concentration at 0.5 h (µM)
Your answer is read as µM, so omit the unit and give the number.

In one line, give reported concentration at 0.5 h of the entry C[C@@H]1CN(C(=O)[C@@H]2CN(C3CCOCC3)C[C@H]2c2ccc(F)cc2F)C[C@H](C)N1c1ccc(F)cc1 (single isomer, unassigned) .
8.6

* * *

- system_under_test: MC1R (Homo sapiens)
- Construct: expressed in transfected cells
- Sequence (Q01726 whole entry): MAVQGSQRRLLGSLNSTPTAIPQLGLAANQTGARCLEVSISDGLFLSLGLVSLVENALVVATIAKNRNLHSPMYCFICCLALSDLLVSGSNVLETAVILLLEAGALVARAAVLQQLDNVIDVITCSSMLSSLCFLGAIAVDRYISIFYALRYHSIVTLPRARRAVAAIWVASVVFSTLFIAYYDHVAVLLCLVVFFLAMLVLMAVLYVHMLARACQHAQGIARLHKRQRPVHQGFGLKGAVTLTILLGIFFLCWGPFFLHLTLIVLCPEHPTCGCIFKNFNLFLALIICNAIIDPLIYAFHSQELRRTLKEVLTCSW
- method_description: In vitro activity of MCR receptors, intracellular cAMP signal (HEK293T/MCR cell line), MC1R
- Assay type: cell-based
property_name: pEC50
// pEC50: -log10(molar conc.)

Provide pEC50, system MC1R (Homo sapiens), entry C[C@@H]1CN(C(=O)C2CN(c3ccc(C#N)cn3)CC2c2ccc(F)cc2F)C[C@H](C)N1c1ccc(F)cc1 (single isomer, unassigned)
6.63

Report value: pEC50, system: MC1R (Homo sapiens), compound: C[C@@H]1CN(C(=O)C2CN(C(C)(C)C)CC2c2ccc(F)cc2F)C[C@H](C)N1c1ccc(C(F)(F)F)cc1 (single isomer, unassigned)
6.05

* * *

- system_under_test: MC5R (Homo sapiens)
- Construct: expressed in transfected cells
- method_description: In vitro activity of MCR receptors, intracellular cAMP signal (HEK293T/MCR cell line), MC5R
- Type: cell-based
- measurement_parameters: cAMP, HEK293T/MCR cell line; read-out: MC5R EC50
pEC50: −log10 of the molar value.
property_name: pEC50

Quote pEC50 reported for C[C@@H]1CN(C(=O)[C@@H]2CN(C3CCOCC3)C[C@H]2c2ccc(F)cc2F)C[C@H](C)N1c1ccc(Cl)cc1 please.
< 5.00

Look up pEC50 of C[C@@H]1CN(C(=O)[C@@H]2CN(C3CCOCC3)C[C@H]2c2ccc(F)cc2F)C[C@H](C)N1c1ccc(F)cc1 (single isomer, unassigned) and report it.
< 5.00

Return the recorded pEC50 value; entry: CC1CC(N2CC(C(=O)N3C[C@@H](C)N(c4ccc(F)cc4)[C@@H](C)C3)C(c3ccc(F)cc3F)C2)CCO1 (single isomer, unassigned) [Compound 22a]
< 5.00

* * *

Field: pEC50. Provide a value for each of the compounds that follow.
- system_under_test: MC4R (Homo sapiens)
- Construct: expressed in transfected cells
- Sequence (P32245 whole entry): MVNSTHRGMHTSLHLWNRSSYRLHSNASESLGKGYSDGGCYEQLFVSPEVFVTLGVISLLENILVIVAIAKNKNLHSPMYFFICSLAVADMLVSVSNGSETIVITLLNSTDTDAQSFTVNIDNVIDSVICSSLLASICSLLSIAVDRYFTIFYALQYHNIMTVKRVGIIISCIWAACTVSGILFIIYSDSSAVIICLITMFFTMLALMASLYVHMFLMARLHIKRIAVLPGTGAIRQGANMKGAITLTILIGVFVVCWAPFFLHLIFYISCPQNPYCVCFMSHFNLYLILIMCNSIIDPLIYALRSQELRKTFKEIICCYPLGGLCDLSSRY
- method_description: In vitro activity of MCR receptors, intracellular cAMP signal (HEK293T/MCR cell line), MC4R
- Type: cell-based
- measurement_parameters: cAMP, HEK293T/MCR cell line; read-out: MC4R EC50
Structures can show the parent of a compound that is named as a salt.
Worth noting: pEC50 values are minus log10 of concentrations stated in mol/L.

State pEC50 (MC4R (Homo sapiens)) of C[C@@H]1CN(C(=O)[C@@H]2CN(C3CCOCC3)C[C@H]2c2ccc(F)cc2F)C[C@H](C)N1c1ccc(Cl)cc1 .
8.52

Quote MC4R (Homo sapiens) pEC50 for entry C[C@@H]1CN(C(=O)[C@@H]2CN(C(C)(C)C)C[C@H]2c2ccc(F)cc2F)C[C@H](C)N1c1ccccc1 [Hydrochloride salt of compound 6] .
7.62

Look up MC4R (Homo sapiens) data: pEC50 of C[C@@H]1CN(C(=O)C2CN(C3CCOC3)CC2c2ccc(F)cc2F)C[C@H](C)N1c1ccc(F)cc1 (single isomer, unassigned) [Compound 20a] , then report it.
7.59

Report value: pEC50, system: MC4R (Homo sapiens), compound: CCC(C)(C)N1CC(C(=O)N2C[C@@H](C)N(c3ccc(F)cc3)[C@@H](C)C2)[C@H](c2ccc(F)cc2F)C1 (stereo partly shown)
8.40

Answer briefly: pEC50 recorded on MC4R (Homo sapiens) for CC1CC(N2CC(C(=O)N3C[C@@H](C)N(c4ccc(F)cc4)[C@@H](C)C3)C(c3ccc(F)cc3F)C2)CCO1 (single isomer, unassigned) [Compound 22a]
10.52

Lab note: MC4R (Homo sapiens) assay, enter pEC50 for C[C@@H]1CN(C(=O)[C@@H]2CN(C3CCOCC3)C[C@H]2c2ccc(F)cc2F)C[C@H](C)N1c1ccc(F)c(F)c1 here
8.00

Lab note: MC4R (Homo sapiens) assay, enter pEC50 for C[C@@H]1CN(C(=O)[C@@H]2CN(C3CCOCC3)C[C@H]2c2ccc(F)cc2F)C[C@H](C)N1c1ccc(F)cc1 (single isomer, unassigned) here
7.92
